Field: melting point. Provide a value for each of the compounds that follow.

Inquiry: # melting point lookup, item Cc1cccc(C)c1C(=O)N1C[C@H]2CN(CCC(NC(=O)C3CCCC3)c3ccccc3)C[C@H]2C1 (some centres unmarked)
Reply text: 60.9 to 63.9 °C

Inquiry: # melting point lookup, item Cc1ncnc(C)c1C(=O)N1CC2CN(C(C)CC(NC(=O)C3CCC(F)(F)CC3)c3ccccc3)CC2C1 (centres unmarked)
Reply text: 71.3 to 72.9 °C

Inquiry: # melting point lookup, item `CC(=O)N1CCC(C(=O)N(CCCN2C[C@@H]3CN(C(=O)c4c(C)cccc4C)C[C@@H]3C2)c2ccc(C)c(Cl)c2)CC1`
Reply text: 58.1 to 65.2 °C

Inquiry: # melting point lookup, item Cc1ncnc(C)c1C(=O)N1CC2CN(CCC(NC(=O)C3CCC(F)(F)CC3)c3ccccc3)CC2C1 (centres unmarked)
Reply text: 131.8 to 133.2 °C

Inquiry: # melting point lookup, item Cc1ncnc(C)c1C(=O)N1CC2CN(CCC(NC(=O)C3CCCC3)c3ccccc3)CC2C1 (centres unmarked)
Reply text: 48 to 49 °C

====

Field: melting point. Provide a value for each of the compounds that follow.

Inquiry: # melting point lookup, item Cc1cccc(C)c1C(=O)N1CC2CN(C(CO)CC(NC(=O)C3CCCC3)c3ccccc3)CC2C1 (stereo not shown)
Reply text: 78.9 to 84.9 °C

Inquiry: # melting point lookup, item CC(=O)N1CCC(C(=O)N(CCC(C)N2CC3CN(C(=O)c4c(C)ccnc4C)CC3C2)c2ccc(C)c(Cl)c2)CC1 (stereo not shown)
Reply text: 60.9 to 62.4 °C

Inquiry: # melting point lookup, item Cc1ccnc(C)c1C(=O)N1CC2CN(CC[C@H](NC(=O)C3CCCC3)c3ccccc3)CC2C1 (stereo partly shown)
Reply text: 68.8 to 73.6 °C

Inquiry: # melting point lookup, item Cc1ncnc(C)c1C(=O)N1CC2CN(C(C)C[C@H](NC(=O)C3CCC(F)(F)CC3)c3ccccc3)CC2C1 (stereo partly shown)
Reply text: 86.4 to 87 °C

Inquiry: # melting point lookup, item `Cc1ccc(N(CCCN2C[C@@H]3CN(C(=O)c4c(C)ccnc4C)C[C@@H]3C2)C(=O)Nc2ccc(Cl)cc2)cc1`
Reply text: 60.5 to 62.5 °C

Inquiry: # melting point lookup, item Cc1ccc(N(CCCN2CC3CN(C(=O)c4c(C)cccc4C)CC3C2)C(=O)C2CCS(=O)(=O)CC2)cc1Cl (stereo not shown)
Reply text: 101.3 to 102.7 °C

Inquiry: # melting point lookup, item CC(=O)N1CCC(C(=O)N(CCCN2CC3CN(C(=O)c4c(C)ccnc4C)CC3C2)c2ccc(C)c(Cl)c2)CC1 (stereo not shown)
Reply text: 91.8 to 96.9 °C

====

- target_desc: Human CCR5 receptor (Homo sapiens)
- Construct: expressed in transfected cells
- Sequence (P51681 whole entry): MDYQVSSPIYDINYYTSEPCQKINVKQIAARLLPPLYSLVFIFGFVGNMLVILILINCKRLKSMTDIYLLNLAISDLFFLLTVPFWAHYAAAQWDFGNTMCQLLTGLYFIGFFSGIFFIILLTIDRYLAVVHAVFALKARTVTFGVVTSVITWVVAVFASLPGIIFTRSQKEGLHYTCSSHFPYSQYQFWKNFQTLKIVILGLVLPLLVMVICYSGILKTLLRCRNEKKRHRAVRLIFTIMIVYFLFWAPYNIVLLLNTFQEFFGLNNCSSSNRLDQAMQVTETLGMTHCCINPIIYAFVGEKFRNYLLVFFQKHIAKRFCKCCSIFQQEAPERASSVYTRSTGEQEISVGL
- assay_notes: Human CCR5 receptor-ligand binding assay (125I RANTES displacement)
- experimental_setup: 0.1 nM 125I RANTES, CHO-Gα16-hCCR5 cells, RT 2 h
Structures can show the parent of a compound that is named as a salt.
test_readout: IC50 (µM)
Express it in µM; write the number only.

Inquiry: # IC50 lookup, item Cc1ccc(N(CCCN2CC3CN(C(=O)c4c(C)ncnc4C)CC3C2)C(=O)C2CCN(C(=O)C(=O)O)CC2)cc1Cl (stereo not drawn) [II-303, hydrochloride salt]
Reply text: 0.102

Inquiry: # IC50 lookup, item CCOC(=O)c1[nH]c(C)c(S(=O)(=O)N2CC3CN(CCCN(C(=O)C4CCN(C(C)=O)CC4)c4ccc(C)c(Cl)c4)CC3C2)c1C (stereo not drawn)
Reply text: 0.0027

Inquiry: # IC50 lookup, item Cc1ncnc(C)c1C(=O)N1CC2CN(C(C)C[C@H](NC(=O)C3CCC(F)(F)CC3)c3ccccc3)CC2C1 (stereo partly drawn)
Reply text: 0.001

Inquiry: # IC50 lookup, item Cc1ccnc(C)c1C(=O)N1CC2CN(CC[C@H](NC(=O)C3CCCC3)c3ccccc3)CC2C1 (stereo partly drawn)
Reply text: 0.037

Inquiry: # IC50 lookup, item Cc1nc(OCC(=O)O)nc(C)c1C(=O)N1CC2CN(CC[C@H](NC(=O)C3CCCC3)c3ccccc3)CC2C1 (stereo partly drawn)
Reply text: 0.011

Inquiry: # IC50 lookup, item Cc1ncnc(C)c1C(=O)N1CC2CN(CCC(NC(=O)C3CCCC3)c3ccccc3)CC2C1 (stereo not drawn)
Reply text: 0.016

Inquiry: # IC50 lookup, item Cc1ccc(N(CCCN2CC3CN(C(=O)c4c(C)cccc4C)CC3C2)C(=O)C2CCS(=O)(=O)CC2)cc1Cl (stereo not drawn)
Reply text: 0.0015

Inquiry: # IC50 lookup, item `CC(=O)N1CCC(C(=O)N(CCCN2C[C@@H]3CN(C(=O)c4c(C)cccc4C)C[C@@H]3C2)c2ccc(C)c(Cl)c2)CC1`
Reply text: 0.0042

Inquiry: # IC50 lookup, item CC(=O)N1CCC(C(=O)N(CCCN2CC3CN(C(=O)c4c(C)ccnc4C)CC3C2)c2ccc(C)c(Cl)c2)CC1 (stereo not drawn)
Reply text: 0.0184
